Molecular target: Bombesin receptor subtype-3 (Mus musculus, UniProt O54798)
Sequence (O54798 whole entry): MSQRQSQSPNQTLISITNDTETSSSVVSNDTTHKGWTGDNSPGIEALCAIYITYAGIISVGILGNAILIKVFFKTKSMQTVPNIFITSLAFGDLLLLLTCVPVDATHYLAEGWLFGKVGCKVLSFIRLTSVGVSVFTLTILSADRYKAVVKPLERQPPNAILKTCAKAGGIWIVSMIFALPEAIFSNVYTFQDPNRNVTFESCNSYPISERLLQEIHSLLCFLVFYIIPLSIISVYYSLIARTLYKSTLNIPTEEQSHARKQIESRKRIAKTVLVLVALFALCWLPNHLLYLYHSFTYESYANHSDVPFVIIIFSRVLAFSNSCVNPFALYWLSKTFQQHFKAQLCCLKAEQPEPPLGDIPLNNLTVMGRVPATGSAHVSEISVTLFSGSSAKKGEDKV
Assay: Agonist activity at mouse BRS3 expressed in HEK293 cells expressing aequorin measured for 30 secs by bioluminescence assay
pEC50: −log10 of the molar value.
endpoint label: pEC50

The examples below pair each entry with its known result.
Cc1ccc2c(c1C)N(S(=O)(=O)c1ccc(C(C)C)cc1)Cc1ccc(C(F)(F)F)nc1N2 : 7.08
Cc1ccc2c(c1C)N(S(=O)(=O)c1ccc(C(F)(F)F)s1)Cc1ccc(C(F)(F)F)nc1N2 : 6.81
CC(C)(C)c1ccc(S(=O)(=O)N2Cc3ccc(C(F)(F)F)nc3Nc3cccc(Cl)c32)cc1 : 6.81
Cc1ccc2c(c1C)N(S(=O)(=O)c1ccc(C(C)(C)C#N)cc1)Cc1ccc(C(F)(F)F)nc1N2 : 7.10
Cc1ccc2c(c1)N(S(=O)(=O)c1ccc(C(C)(C)C)cc1)Cc1ccc(C(F)(F)F)nc1N2 : 6.42
Cc1ccc2c(c1C)N(S(=O)(=O)c1ccc(C(C)(C)C)cc1)Cc1cc(F)c(Cl)nc1N2 : 6.43

I. Cc1ccc2c(c1C)N(S(=O)(=O)c1ccc(C(F)(F)F)cc1)Cc1ccc(C(F)(F)F)nc1N2
II. CC(C)(C)c1ccc(S(=O)(=O)N2Cc3ccc(C(F)(F)F)nc3Nc3ccccc32)cc1
Problem: Could you check which of I and II has a smaller value for pEC50? Respond using the label that marks the chosen record.
Solution: II
